target: HIV-1 92UG024 envelope glycoprotein (Env) on pseudovirus (HIV-1); test: cell-based or functional assay
A collection of binders and their measured IC50, pseudovirus neutralization
The response must be a number in µg/mL with no trailing unit.

{"columns": ["BINDER", "IC50, pseudovirus neutralization, µg/mL"],
 "data": [
  ["PGT-135 monoclonal antibody (antibody, V domains shown) VH: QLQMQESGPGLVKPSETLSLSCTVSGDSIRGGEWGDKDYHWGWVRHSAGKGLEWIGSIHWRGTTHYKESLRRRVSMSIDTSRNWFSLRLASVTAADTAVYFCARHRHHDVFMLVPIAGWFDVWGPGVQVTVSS VL: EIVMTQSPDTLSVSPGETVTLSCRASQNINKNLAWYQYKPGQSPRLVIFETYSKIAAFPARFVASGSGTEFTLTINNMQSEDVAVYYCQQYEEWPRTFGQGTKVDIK", 0.0139]
]}

Field: next binder
Param item = PGT-136 monoclonal antibody (antibody, V domains shown) VH: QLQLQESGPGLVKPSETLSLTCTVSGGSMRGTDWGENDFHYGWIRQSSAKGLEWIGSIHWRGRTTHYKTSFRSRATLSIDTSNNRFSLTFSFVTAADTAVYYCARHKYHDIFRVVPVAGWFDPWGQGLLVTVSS VL: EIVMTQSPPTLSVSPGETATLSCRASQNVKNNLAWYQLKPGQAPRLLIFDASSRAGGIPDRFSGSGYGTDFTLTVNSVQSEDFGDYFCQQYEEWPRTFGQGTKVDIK ; retrieve measured IC50, pseudovirus neutralization. 0.0915
